test system: Escherichia coli; experiment: Antimicrobial activity against Escherichia coli harboring beta-lactamase VIM-2 by Etest; assay type: functional
Each record here notes measured MIC.
measureName: MIC (µg/mL)

smilesRepresentation	unitAbbreviation	relationalOperator	recordedMeasurement
CC(C)(O/N=C(\C(=O)N[C@@H]1C(=O)N2C(C(=O)[O-])=C(C[n+]3ccccc3)CS[C@H]12)c1csc(N)n1)C(=O)O	µg/mL	=	4
Cc1nnc(SCC2=C(C(=O)O)N3C(=O)[C@@H](NC(=O)Cn4cnnn4)[C@H]3SC2)s1	µg/mL	>	256
CO/N=C(\C(=O)N[C@@H]1C(=O)N2C(C(=O)[O-])=C(C[N+]3(C)CCCC3)CS[C@H]12)c1csc(N)n1	µg/mL	=	0.5
CCN1CCN(C(=O)N[C@@H](C(=O)N[C@@H]2C(=O)N3[C@@H]2SC(C)(C)[C@@H]3C(=O)O)c2ccccc2)C(=O)C1=O	µg/mL	=	4
C[C@@H](O)[C@H]1C(=O)N2C(C(=O)O)=C(S[C@@H]3CN[C@H](C(=O)N(C)C)C3)[C@H](C)[C@H]12	µg/mL	=	0.125
C[C@@H](O)[C@H]1C(=O)N2C(C(=O)O)=C(S[C@@H]3CN[C@H](C(=O)Nc4cccc(C(=O)O)c4)C3)[C@H](C)[C@H]12	µg/mL	=	0.25

---

tested on: Escherichia coli; experiment: Antimicrobial activity against Escherichia coli harboring beta-lactamase VIM-2 by Etest; format: functional
measureName: MIC (µg/mL)

compound	relationalOperator	recordedMeasurement
CO[C@@]1(NC(=O)Cc2cccs2)C(=O)N2C(C(=O)O)=C(COC(N)=O)CS[C@@H]21 [CEFOXITIN]	>	256
CC1(C)S[C@@H]2[C@H](NC(=O)[C@H](N)c3ccccc3)C(=O)N2[C@H]1C(=O)O [AMPICILLIN]	>	256
CO/N=C(\C(=O)N[C@@H]1C(=O)N2C(C(=O)O)=C(COC(C)=O)CS[C@H]12)c1csc(N)n1 [CEFOTAXIME]	=	4
C[C@H]1[C@H](NC(=O)/C(=N\OC(C)(C)C(=O)O)c2csc(N)n2)C(=O)N1S(=O)(=O)O [AZTREONAM]	=	0.032
C[C@@H](O)[C@H]1C(=O)N2C(C(=O)O)=C(SCCNC=N)C[C@H]12 [IMIPENEM ANHYDROUS]	=	0.5

---

test system: Escherichia coli; assay: Antimicrobial activity against Escherichia coli harboring beta-lactamase VIM-18 by Etest; format: functional
measureName: MIC

compound	recordedMeasurement
C[C@@H](O)[C@H]1C(=O)N2C(C(=O)O)=C(S[C@@H]3CN[C@H](C(=O)Nc4cccc(C(=O)O)c4)C3)[C@H](C)[C@H]12	0.016 µg/mL
C[C@H]1[C@H](NC(=O)/C(=N\OC(C)(C)C(=O)O)c2csc(N)n2)C(=O)N1S(=O)(=O)O [AZTREONAM]	0.032 µg/mL
CC(C)(O/N=C(\C(=O)N[C@@H]1C(=O)N2C(C(=O)[O-])=C(C[n+]3ccccc3)CS[C@H]12)c1csc(N)n1)C(=O)O [CEFTAZIDIME]	16 µg/mL
Cc1nnc(SCC2=C(C(=O)O)N3C(=O)[C@@H](NC(=O)Cn4cnnn4)[C@H]3SC2)s1 [CEFAZOLIN]	32 µg/mL
C[C@@H](O)[C@H]1C(=O)N2C(C(=O)O)=C(S[C@@H]3CN[C@H](C(=O)N(C)C)C3)[C@H](C)[C@H]12 [MEROPENEM]	0.064 µg/mL
